- target: CYP3A4 (Homo sapiens)
- Sequence (P08684 whole entry): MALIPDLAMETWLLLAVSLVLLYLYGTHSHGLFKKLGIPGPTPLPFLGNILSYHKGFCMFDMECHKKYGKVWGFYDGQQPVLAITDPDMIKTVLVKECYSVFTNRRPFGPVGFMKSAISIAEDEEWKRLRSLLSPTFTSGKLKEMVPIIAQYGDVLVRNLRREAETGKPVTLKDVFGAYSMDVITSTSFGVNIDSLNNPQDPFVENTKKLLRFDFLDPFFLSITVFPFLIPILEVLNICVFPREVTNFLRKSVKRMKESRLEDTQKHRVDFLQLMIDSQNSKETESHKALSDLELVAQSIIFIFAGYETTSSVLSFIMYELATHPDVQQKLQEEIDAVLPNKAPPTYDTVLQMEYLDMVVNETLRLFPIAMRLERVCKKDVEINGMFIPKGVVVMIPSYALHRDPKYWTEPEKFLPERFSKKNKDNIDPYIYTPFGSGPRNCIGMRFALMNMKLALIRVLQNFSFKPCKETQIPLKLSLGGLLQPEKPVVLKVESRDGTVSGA
- method summary: Cytochrome P450 (CYP450) Inhibition Assay, CYP3A4 (Vivid fluorescence, BOMCC substrate)
- experimental context: human, P450 Baculosomes (recombinant CYP3A4), probe BOMCC (Vivid substrate)
The reader will find reported inhibition at 10 µM values listed item by item below.

[
  {
    "molecule": "COCCOCCN1C(=O)C2(COc3cc4c(cc32)OCCO4)c2c1ccc1ncsc21 (centres unmarked)",
    "inhibition at 10 µM": "> 50%"
  },
  {
    "molecule": "COCCOc1ccc2c(c1)OCC21C(=O)Nc2ccccc21 (centres unmarked)",
    "inhibition at 10 µM": "< 50%"
  },
  {
    "molecule": "Cc1nc2cc3c(cc2o1)C1(CO3)C(=O)N(C[C@H]2CCCO2)c2ccccc21 (some centres unmarked)",
    "inhibition at 10 µM": "< 50%"
  },
  {
    "molecule": "Cc1noc2cc3c(cc12)C1(CO3)C(=O)N(Cc2ncccc2F)c2ccccc21 (centres unmarked)",
    "inhibition at 10 µM": "< 50%"
  },
  {
    "molecule": "Cn1c(CN2C(=O)C3(COc4cc5c(cc43)OCCO5)c3ccccc32)nc2ccccc21 (centres unmarked)",
    "inhibition at 10 µM": "> 50%"
  },
  {
    "molecule": "CN(C)c1ccc(CN2C(=O)C3(COc4cc5c(cc43)OCCO5)c3ccccc32)nc1 (centres unmarked)",
    "inhibition at 10 µM": "> 50%"
  },
  {
    "molecule": "COc1ccc2c(c1OC)C1(COc3cc4c(cc31)OCCO4)C(=O)N2Cc1ccc(C(F)(F)F)o1 (centres unmarked)",
    "inhibition at 10 µM": "> 50%"
  },
  {
    "molecule": "CC(O)CCN1C(=O)C2(COc3cc4c(cc32)CCO4)c2ccccc21 (centres unmarked)",
    "inhibition at 10 µM": "< 50%"
  },
  {
    "molecule": "COc1cccc(Oc2cccc3c2C2(COc4cc5c(cc42)OCCO5)C(=O)N3C)c1 (centres unmarked)",
    "inhibition at 10 µM": "> 50%"
  },
  {
    "molecule": "CN1C(=O)C2(COc3cc4c(cc32)OCCO4)c2c(C(=O)Nc3ccc(F)cc3)cccc21 (centres unmarked)",
    "inhibition at 10 µM": "< 50%"
  },
  {
    "molecule": "CN1C(=O)COc2cc3c(cc21)C1(CO3)C(=O)N(C[C@H]2CCCO2)c2ccccc21 (some centres unmarked)",
    "inhibition at 10 µM": "< 50%"
  },
  {
    "molecule": "O=C1N(Cc2cccc([N+](=O)[O-])c2)c2ccccc2C12COc1cc3c(cc12)OCCO3 (centres unmarked)",
    "inhibition at 10 µM": "< 50%"
  },
  {
    "molecule": "O=C1CC[C@@H](CN2C(=O)C3(COc4cc5c(cc43)CCO5)c3ccccc32)N1 (some centres unmarked)",
    "inhibition at 10 µM": "< 50%"
  },
  {
    "molecule": "CN1C(=O)C2(COc3cc4c(cc32)OCCO4)c2c(NC(=O)C(C)(C)C)cccc21 (centres unmarked)",
    "inhibition at 10 µM": "< 50%"
  },
  {
    "molecule": "O=C1N(Cc2ccc(C(F)(F)F)o2)c2ccccc2C12CCOc1cc3c(cc12)CCO3 (centres unmarked)",
    "inhibition at 10 µM": "> 50%"
  },
  {
    "molecule": "Cc1noc2cc3c(cc12)C1(CO3)C(=O)N(CCC(C)C)c2ccccc21 (centres unmarked)",
    "inhibition at 10 µM": "> 50%"
  },
  {
    "molecule": "COCCOCCN1C(=O)C2(COc3cc4c(cc32)OCCO4)c2c(OC)ccc(OC)c21 (centres unmarked)",
    "inhibition at 10 µM": "< 50%"
  }
]

Data origin: patent US8263606B2
